Form field: MIC 90% (one value per entry).
test system: VanC enterococci (22); assay: MIC broth microdilution, vanC-carrying enterococci; conditions: VanC enterococci (22)
Reply numerically in µg/mL, unit not repeated.

// worked examples, MIC 90% included
[
  {
    "compound": "CCCCCCCCCCNCCNC1(C)CC(OC2C(Oc3c4cc5cc3Oc3ccc(cc3Cl)C(O)C3NC(=O)C(NC(=O)C5NC(=O)C(CC(N)=O)NC(=O)C(NC(=O)C(CC(C)C)NC)C(O)c5ccc(c(Cl)c5)O4)c4ccc(O)c(c4)-c4c(O)cc(O)cc4C(C(=O)NCCOCCOCCN)NC3=O)OC(CO)C(O)C2O)OC(C)C1O (stereo not drawn) [Compound 2]",
    "outcome_measure": "MIC 90%",
    "test_result": 0.12
  },
  {
    "compound": "CNC(CC(C)C)C(=O)NC1C(=O)NC(CC(N)=O)C(=O)NC2C(=O)NC3C(=O)NC(C(=O)NC(C(=O)NCCOCCOCCN)c4cc(O)cc(O)c4-c4cc3ccc4O)C(O)c3ccc(c(Cl)c3)Oc3cc2cc(c3OC2OC(CO)C(O)C(O)C2OC2CC(C)(NCc3ccc(OCc4ccc(Cl)c(Cl)c4)cc3)C(O)C(C)O2)Oc2ccc(cc2Cl)C1O (stereo not drawn) [Compound 27]",
    "outcome_measure": "MIC 90%",
    "test_result": 0.25
  },
  {
    "compound": "CNC(CC(C)C)C(=O)NC1C(=O)NC(CC(N)=O)C(=O)NC2C(=O)NC3C(=O)NC(C(=O)NC(C(=O)O)c4cc(O)c(CNCCOCCOCCN(C)C)c(O)c4-c4cc3ccc4O)C(O)c3ccc(c(Cl)c3)Oc3cc2cc(c3OC2OC(CO)C(O)C(O)C2OC2CC(C)(NCc3ccc(-c4ccc(Cl)cc4)cc3)C(O)C(C)O2)Oc2ccc(cc2Cl)C1O (stereo not drawn) [Compound 12]",
    "outcome_measure": "MIC 90%",
    "test_result": 0.5
  },
  {
    "compound": "CNC(CC(C)C)C(=O)NC1C(=O)NC(CC(N)=O)C(=O)NC2C(=O)NC3C(=O)NC(C(=O)NC(C(=O)O)c4cc(O)c(CNCCOCCOCCN)c(O)c4-c4cc3ccc4O)C(O)c3ccc(c(Cl)c3)Oc3cc2cc(c3OC2OC(CO)C(O)C(O)C2OC2CC(C)(NCc3ccc(OCc4ccc(Cl)c(Cl)c4)cc3)C(O)C(C)O2)Oc2ccc(cc2Cl)C1O (stereo not drawn) [Compound 28]",
    "outcome_measure": "MIC 90%",
    "test_result": 0.25
  },
  {
    "compound": "CCCCCCCCCCNCCNC1(C)CC(OC2C(Oc3c4cc5cc3Oc3ccc(cc3Cl)C(O)C3NC(=O)C(NC(=O)C5NC(=O)C(CC(N)=O)NC(=O)C(NC(=O)C(CC(C)C)NC)C(O)c5ccc(c(Cl)c5)O4)c4ccc(O)c(c4)-c4c(cc(O)c(CNCCOCCOCCN)c4O)C(C(=O)O)NC3=O)OC(CO)C(O)C2O)OC(C)C1O (stereo not drawn) [Compound 3]",
    "outcome_measure": "MIC 90%",
    "test_result": 0.12
  }
]

Requested field: MIC 90%. Item: CNC(CC(C)C)C(=O)NC1C(=O)NC(CC(N)=O)C(=O)NC2C(=O)NC3C(=O)NC(C(=O)NC(C(=O)NCCOCCOCCN)c4cc(O)cc(O)c4-c4cc3ccc4O)C(O)c3ccc(c(Cl)c3)Oc3cc2cc(c3OC2OC(CO)C(O)C(O)C2OC2CC(C)(NCc3ccc(-c4ccc(Cl)cc4)cc3)C(O)C(C)O2)Oc2ccc(cc2Cl)C1O (stereo not drawn) [Compound 9]
0.5

Bench note: what MIC 90% did CNC(CC(C)C)C(=O)NC1C(=O)NC(CC(N)=O)C(=O)NC2C(=O)NC3C(=O)NC(C(=O)NC(C(=O)O)c4cc(O)c(CNCCOCCOCCOCCN(C)C)c(O)c4-c4cc3ccc4O)C(O)c3ccc(c(Cl)c3)Oc3cc2cc(c3OC2OC(CO)C(O)C(O)C2OC2CC(C)(NCc3ccc(-c4ccc(Cl)cc4)cc3)C(O)C(C)O2)Oc2ccc(cc2Cl)C1O (stereo not drawn) [Compound 14] show?
0.5

Which MIC 90% reading was recorded for the compound CNC(CC(C)C)C(=O)NC1C(=O)NC(CC(N)=O)C(=O)NC2C(=O)NC3C(=O)NC(C(=O)NC(C(=O)O)c4cc(O)c(CNCCOCCOCC[N+](C)(C)C)c(O)c4-c4cc3ccc4O)C(O)c3ccc(c(Cl)c3)Oc3cc2cc(c3OC2OC(CO)C(O)C(O)C2OC2CC(C)(NCc3ccc(OCc4ccc(Cl)c(Cl)c4)cc3)C(O)C(C)O2)Oc2ccc(cc2Cl)C1O (stereo not drawn) [Compound 29] ?
0.5
